Study target: influenza A virus (IAV) PA-Nter fragment (amino acids 1-209) (Influenza A virus, UniProt P31343)
Recorded IC50 values for a group of compounds are listed next.
Note: unit nM is implicit; provide only the numeric part.

{"columns": ["Smiles code", "Quantity unit", "IC50"],
 "data": [
  ["CC(C)N1CCn2c(CNC(=O)c3cccn3C)cc(=O)c(O)c2C1=O", "nM", 310],
  ["CC(C)N1CCn2c(CNS(=O)(=O)c3cccc4ccccc34)cc(=O)c(O)c2C1=O", "nM", 124],
  ["CC(C)N1CCn2c(CNS(=O)(=O)c3ccccc3)cc(=O)c(O)c2C1=O", "nM", 130]
]}

Fill in IC50 for record "CC(C)N1CCn2c(CNC(=O)CCC(F)(F)F)cc(=O)c(O)c2C1=O"
250

Please report IC50 for the following compound: "CC(C)CC(=O)N(Cc1cc(=O)c(O)c2n1CCN(C(C)C)C2=O)C1CCCCC1"
469

Using known records, supply IC50 for "CN1CCn2c(CNS(=O)(=O)c3ccccc3)cc(=O)c(O)c2C1=O"
27

Query IC50 for "CC(C)N1CCn2c(CNS(=O)(=O)C3CC3)cc(=O)c(O)c2C1=O"
181

Answer with the recorded IC50 of "CC(C)N1CCn2c(CNC(=O)c3ccc(C#N)cc3)cc(=O)c(O)c2C1=O" only.
400

Supply recorded IC50 for "CC(C)CS(=O)(=O)NCc1cc(=O)c(O)c2n1CCN(C(C)C)C2=O" here.
211

* * *

Study target: influenza A virus (IAV) PA-Nter fragment (amino acids 1-209) (Influenza A virus)
Each entry below carries its recorded log10 of IC50.
A difference of one corresponds to tenfold IC50; all values are log10 with IC50 in nM.

As a guide, the following entries are already answered.
{"columns": ["Smiles code", "Result value"],
 "data": [
  ["Cc1noc(C)c1S(=O)(=O)NCc1cc(=O)c(O)c2n1CCN(C(C)C)C2=O", 2.26],
  ["CC(C)N1CCn2c(CNC(c3ccccc3)c3ccccc3)cc(=O)c(O)c2C1=O", 3.05],
  ["CC(C)N1CCn2c(CNS(=O)(=O)Cc3ccccc3)cc(=O)c(O)c2C1=O", 2.27],
  ["Cc1ccccc1S(=O)(=O)NCc1cc(=O)c(O)c2n1CCN(C)C2=O", 1.68],
  ["CC(=O)N(Cc1ccccc1)Cc1cc(=O)c(O)c2n1CCN(C(C)C)C2=O", 1.64],
  ["CC(C)N1CCn2c(CNC(=O)CC(F)(F)F)cc(=O)c(O)c2C1=O", 2.51],
  ["CC(C)N1CCn2c(CNS(=O)(=O)c3ccccc3F)cc(=O)c(O)c2C1=O", 2.02],
  ["CC(C)N1CCn2c(CNC3c4ccccc4CCc4ccccc43)cc(=O)c(O)c2C1=O", 3.56],
  ["CC(C)N1CCn2c(CN)cc(=O)c(O)c2C1=O", 2.69],
  ["CN1CCn2c(CNS(=O)(=O)c3cccc(Cl)c3)cc(=O)c(O)c2C1=O", 1.91]
]}

GET log10 of IC50 | system: influenza A virus (IAV) PA-Nter fragment (amino acids 1-209) (Influenza A virus) | item: "CC(C)N1CCn2c(CNC(=O)C3CCCCC3)cc(=O)c(O)c2C1=O"
2.56

Enter recorded log10 of IC50 with influenza A virus (IAV) PA-Nter fragment (amino acids 1-209) (Influenza A virus) for "CC(C)N1CCn2c(CNS(=O)(=O)c3ccc(Cl)cc3F)cc(=O)c(O)c2C1=O" here.
2.35

Origin of the recorded values: patent US20160002226A1
